- Tested on: Rab10 pThr73
- method: Rab10 Thr73 dephosphorylation (immunoblot) in LRRK2^G2019S MEFs
- Type: cell-based
- condition.notes: Mus musculus, 33 nM/4 h treatment; read-out: pRab10 inhibited in LRRK2^G2019S MEFs
assay.endpoint: inhibition at 0.033 µM

A selection of reference data follows.
- compound: "CNc1nc(Nc2ccc(C(=O)N3CCN(CCCOc4cccc(C(=O)c5csc(C6CCCN6C(=O)[C@@H](NC(=O)[C@H](C)NC)C6CCCCC6)n5)c4)CC3)cc2OC)ncc1Cl (stereo partly drawn)"
  inhibition at 0.033 µM: "0 to 60%"
- compound: "CNc1nc(Nc2ccc(C(=O)N3CCN(CCOCCOCCOc4cccc(C(=O)c5csc(C6CCCN6C(=O)[C@@H](NC(=O)[C@H](C)NC)C6CCCCC6)n5)c4)CC3)cc2OC)ncc1Cl (stereo partly drawn)"
  inhibition at 0.033 µM: "0 to 60%"
- compound: "CNc1nc(Nc2ccc(C(=O)N3CCN(Cc4ccc(CSC(C)(C)[C@H](NC(=O)C5(F)CC5)C(=O)N5C[C@H](O)C[C@H]5C(=O)N[C@@H](C)c5ccc(-c6scnc6C)cc5)cc4)CC3)cc2OC)ncc1Cl"
  inhibition at 0.033 µM: "0 to 70%"
- compound: "CNc1nc(Nc2ccc(C(=O)N3C[C@@H](C)N(C[C@H]4CC[C@H](CSC(C)(C)C(NC(=O)C5(F)CC5)C(=O)N5C[C@H](O)C[C@H]5C(=O)NCc5ccc(-c6scnc6C)cc5)CC4)[C@@H](C)C3)cc2OC)ncc1Cl (stereo partly drawn)"
  inhibition at 0.033 µM: "0 to 90%"

Q) // map CNc1nc(Nc2ccc(C(=O)N3CCN(CCCN4CCN(c5ccc6c(c5)C(=O)N(C5CCC(=O)NC5=O)C6=O)CC4)CC3)cc2OC)ncc1Cl (stereo not drawn) to recorded inhibition at 0.033 µM (system: Rab10 pThr73)
A) 0 to 60%

Q) Lookup: inhibition at 0.033 µM / Rab10 pThr73 / "CNc1nc(Nc2ccc(OCCOCCCSC(C)(C)[C@@H](NC(=O)C3(F)CC3)C(=O)N3C[C@H](O)C[C@H]3C(=O)NCc3ccc(-c4scnc4C)cc3)cc2OC)ncc1Cl"
A) 0 to 70%

----------
Documented inhibition at 1 µM across a set of compounds
- System: Rab10 pThr73
- method: Rab10 Thr73 dephosphorylation (immunoblot) in WT MEFs
- Type: cell-based, mouse
- condition.notes: Mus musculus, 1 μM/24 h treatment; read-out: pRab10 inhibited in WT MEFs
- Procedure: Western blot degradation assays for the LRRK2 protacs were performed with WT and PD-associated LRRK2 [G2019S] mouse embryonic fibroblasts (MEFs). The second-generation PROTACs were tested in parallel with the first generation PROTACs SD75, SD82, and SD100. The compounds were tested at 33 nM or […] concentrations for 4 hours or 24 hours, running two biological replicates per condition and achieving quantifications representative of both replicates. […]

As a guide, the following entries are already answered.
- smiles.representation: "CNc1nc(Nc2ccc(C(=O)N3CCN(CCOCCOCCOCCOCCOc4cc(-c5scnc5C)ccc4CNC(=O)[C@@H]4C[C@@H](O)CN4C(=O)[C@@H](NC(=O)C4(F)CC4)C(C)(C)C)CC3)cc2OC)ncc1Cl"
  study.target: "Rab10 pThr73"
  inhibition at 1 µM: "30 to 90%"
- smiles.representation: "CNc1nc(Nc2ccc(C(=O)N3CCN(CCCSC(C)(C)[C@H](NC(=O)C4(F)CC4)C(=O)N4C[C@H](O)C[C@H]4C(=O)NCc4ccc(-c5scnc5C)cc4)CC3)cc2OC)ncc1C(F)(F)F"
  study.target: "Rab10 pThr73"
  inhibition at 1 µM: "30 to 100%"

Attention now turns to another entry.
Q) Param item = "CNc1nc(Nc2ccc(C(=O)N3CCN(CCOCCOCCSC(C)(C)[C@H](NC(=O)C4(F)CC4)C(=O)N4C[C@H](O)C[C@H]4C(=O)NCc4ccc(-c5scnc5C)c(F)c4)CC3)cc2OC)ncc1Cl" ; retrieve measured inhibition at 1 µM.
A) 30 to 100%

----------
- study.target: LRRK2^WT (Mus musculus, UniProt Q5S006)
- Construct: endogenous in cells; host or cells: primary wild-type mouse embryonic fibroblasts (MEFs)
- Sequence (Q5S006 whole entry): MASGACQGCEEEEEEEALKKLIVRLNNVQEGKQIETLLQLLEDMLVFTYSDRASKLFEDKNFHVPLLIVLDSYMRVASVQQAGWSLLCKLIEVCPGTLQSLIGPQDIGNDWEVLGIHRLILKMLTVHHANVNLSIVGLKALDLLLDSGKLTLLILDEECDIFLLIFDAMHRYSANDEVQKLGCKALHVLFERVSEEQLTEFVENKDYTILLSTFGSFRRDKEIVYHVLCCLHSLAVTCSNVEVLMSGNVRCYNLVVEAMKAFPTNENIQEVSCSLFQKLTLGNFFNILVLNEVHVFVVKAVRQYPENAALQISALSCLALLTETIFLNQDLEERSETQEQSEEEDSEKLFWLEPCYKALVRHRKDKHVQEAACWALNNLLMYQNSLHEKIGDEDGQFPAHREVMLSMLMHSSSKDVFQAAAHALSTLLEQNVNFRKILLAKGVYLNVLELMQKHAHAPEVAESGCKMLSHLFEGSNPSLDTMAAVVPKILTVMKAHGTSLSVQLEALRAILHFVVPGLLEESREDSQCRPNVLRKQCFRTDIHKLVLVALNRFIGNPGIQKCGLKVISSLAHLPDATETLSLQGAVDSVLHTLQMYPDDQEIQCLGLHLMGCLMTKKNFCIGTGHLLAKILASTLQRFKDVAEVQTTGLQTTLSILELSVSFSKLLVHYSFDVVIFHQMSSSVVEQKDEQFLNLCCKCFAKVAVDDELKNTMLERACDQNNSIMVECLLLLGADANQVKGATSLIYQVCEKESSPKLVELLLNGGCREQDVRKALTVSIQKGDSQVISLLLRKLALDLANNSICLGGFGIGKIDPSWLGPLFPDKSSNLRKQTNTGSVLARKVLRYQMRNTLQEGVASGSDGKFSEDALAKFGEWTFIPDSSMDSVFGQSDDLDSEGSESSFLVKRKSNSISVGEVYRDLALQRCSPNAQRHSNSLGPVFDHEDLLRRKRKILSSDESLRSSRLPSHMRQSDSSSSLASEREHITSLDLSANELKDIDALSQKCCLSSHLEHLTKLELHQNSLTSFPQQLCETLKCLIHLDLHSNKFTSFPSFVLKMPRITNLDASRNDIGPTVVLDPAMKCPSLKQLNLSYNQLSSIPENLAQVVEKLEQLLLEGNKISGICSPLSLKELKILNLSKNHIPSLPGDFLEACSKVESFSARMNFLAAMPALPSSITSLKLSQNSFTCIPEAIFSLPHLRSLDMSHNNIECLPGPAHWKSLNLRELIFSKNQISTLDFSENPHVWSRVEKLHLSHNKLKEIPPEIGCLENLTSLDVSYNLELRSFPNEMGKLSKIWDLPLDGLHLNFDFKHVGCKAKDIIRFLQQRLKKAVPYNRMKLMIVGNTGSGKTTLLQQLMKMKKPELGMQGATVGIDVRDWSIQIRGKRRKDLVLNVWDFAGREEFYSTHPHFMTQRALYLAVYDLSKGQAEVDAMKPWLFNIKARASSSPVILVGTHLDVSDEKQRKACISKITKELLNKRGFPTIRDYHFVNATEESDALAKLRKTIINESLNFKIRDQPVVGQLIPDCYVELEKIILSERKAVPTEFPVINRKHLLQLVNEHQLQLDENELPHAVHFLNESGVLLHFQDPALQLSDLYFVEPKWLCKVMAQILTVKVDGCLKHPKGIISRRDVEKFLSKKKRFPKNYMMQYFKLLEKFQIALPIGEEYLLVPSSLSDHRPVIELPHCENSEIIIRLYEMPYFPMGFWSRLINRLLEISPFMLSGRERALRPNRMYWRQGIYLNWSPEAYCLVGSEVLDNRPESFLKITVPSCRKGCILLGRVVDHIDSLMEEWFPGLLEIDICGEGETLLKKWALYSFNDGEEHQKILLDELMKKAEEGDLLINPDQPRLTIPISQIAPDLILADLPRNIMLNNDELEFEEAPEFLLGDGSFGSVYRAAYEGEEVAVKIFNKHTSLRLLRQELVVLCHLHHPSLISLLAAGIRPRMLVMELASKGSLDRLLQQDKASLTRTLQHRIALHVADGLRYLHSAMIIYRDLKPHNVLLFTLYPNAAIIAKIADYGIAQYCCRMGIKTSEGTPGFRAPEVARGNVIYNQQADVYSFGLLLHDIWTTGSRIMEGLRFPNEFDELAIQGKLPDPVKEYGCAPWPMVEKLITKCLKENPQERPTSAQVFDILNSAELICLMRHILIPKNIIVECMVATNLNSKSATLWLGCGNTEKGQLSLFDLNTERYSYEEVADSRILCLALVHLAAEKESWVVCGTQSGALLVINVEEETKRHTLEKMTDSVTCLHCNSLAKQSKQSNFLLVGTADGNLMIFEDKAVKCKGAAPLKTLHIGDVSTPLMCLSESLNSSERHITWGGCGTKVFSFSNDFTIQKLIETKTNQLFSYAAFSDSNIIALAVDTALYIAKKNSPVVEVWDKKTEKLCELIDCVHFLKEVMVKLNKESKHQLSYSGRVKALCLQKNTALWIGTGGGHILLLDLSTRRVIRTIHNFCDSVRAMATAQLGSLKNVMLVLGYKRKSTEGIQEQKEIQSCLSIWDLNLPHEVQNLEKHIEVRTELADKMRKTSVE
- method: Western blot LRRK2 degradation in WT MEFs
- Assay type: cell-based
- condition.notes: dose response, 4 h treatment; read-out: Dmax on WT MEFs
assay.endpoint: Dmax (%)
All answers are understood in %, so give the number only.

- compound: "CNc1nc(Nc2ccc(C(=O)N3CCN(C[C@H]4CC[C@H](CSC(C)(C)[C@H](NC(=O)C5(F)CC5)C(=O)N5C[C@H](O)CC5C(=O)NCc5ccc(-c6scnc6C)cc5)CC4)CC3)cc2OC)ncc1Cl (stereo partly shown) [XL01126]"
  study.target: "LRRK2^WT (Mus musculus, UniProt Q5S006)"
  assay.endpoint: "Dmax"
  value.units: "%"
  result: 82
- compound: "CNc1nc(Nc2ccc(OC3CCN(C[C@H]4CC[C@H](CSC(C)(C)C(NC(=O)C5(F)CC5)C(=O)N5C[C@H](O)C[C@H]5C(=O)NCc5ccc(-c6scnc6C)cc5)CC4)CC3)cc2OC)ncc1Cl (stereo partly shown) [XL02017]"
  study.target: "LRRK2^WT (Mus musculus, UniProt Q5S006)"
  assay.endpoint: "Dmax"
  value.units: "%"
  result: 68
- compound: "CNc1nc(Nc2ccc(C(=O)N3CCN(C[C@H]4CC[C@H](CSC(C)(C)[C@H](NC(=O)C5(F)CC5)C(=O)N5C[C@H](O)CC5C(=O)NCc5ccc(-c6scnc6C)cc5F)CC4)CC3)cc2OC)ncc1Cl (stereo partly shown) [XL02047]"
  study.target: "LRRK2^WT (Mus musculus, UniProt Q5S006)"
  assay.endpoint: "Dmax"
  value.units: "%"
  result: 78

Pending compound:
Q) Look up Dmax for this compound: CNc1nc(Nc2ccc(C(=O)N3CCN(C[C@H]4CC[C@H](CSC(C)(C)[C@H](NC(=O)C5(F)CC5)C(=O)N5C[C@H](O)CC5C(=O)NCc5ccc(-c6scnc6C)cc5C)CC4)CC3)cc2OC)ncc1Cl (stereo partly shown) [XL02048]
A) 81.5

----------
- Test system: Rab10 pThr73
- method: Rab10 Thr73 dephosphorylation (immunoblot) in LRRK2^G2019S MEFs
- Format: cell-based
- condition.notes: Mus musculus, 33 nM/4 h treatment; read-out: pRab10 inhibited in LRRK2^G2019S MEFs
- Procedure: The second-generation PROTACs were tested in parallel with the first generation PROTACs SD75, SD82, and SD100. The compounds were tested at 33 nM or […] concentrations for 4 hours or 24 hours, running two biological replicates per condition and achieving quantifications representative of both replicates. […]
Recorded inhibition at 0.033 µM by entry

- molecule: "CNc1nc(Nc2ccc(C(=O)N3CCN(CCCOc4cc(-c5scnc5C)ccc4CNC(=O)[C@@H]4C[C@@H](O)CN4C(=O)[C@@H](NC(=O)C4(F)CC4)C(C)(C)C)CC3)cc2OC)ncc1Cl [SD13]"
  inhibition at 0.033 µM: "0 to 60%"
- molecule: "CNc1nc(Nc2ccc(C(=O)N3CCN(C[C@H]4CC[C@@H](CSC(C)(C)[C@H](NC(=O)C5(F)CC5)C(=O)N5C[C@H](O)CC5C(=O)NCc5ccc(-c6scnc6C)cc5)CC4)CC3)cc2OC)ncc1Cl (stereo partly drawn) [XL01134]"
  inhibition at 0.033 µM: "0 to 70%"

Consider the additional molecule presented here.
Q) For the molecule CNc1nc(Nc2ccc(C(=O)N3CCN(CCOCCSC(C)(C)[C@H](NC(=O)C4(F)CC4)C(=O)N4C[C@H](O)C[C@H]4C(=O)NCc4ccc(-c5scnc5C)cc4)CC3)cc2OC)ncc1Cl [XL01131] , what inhibition at 0.033 µM is on record?
A) 0 to 70%

All figures here come from patent US20260001875A1.
